Answer each item with its documented activation.
Target: Glucocorticoid receptor (Homo sapiens)
Experiment: qHTS assay for small molecule agonists of glucocorticoid receptor signaling (AID 588532);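 note: 100% = dexamethasone at 0.1 µM and 0% = DMSO only wells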
Settings: HeLa MMTV-bla, beta-lactamase ratio, agonist, 18 h; stronger effect = higher value; percent of dexamethasone control, DMSO zero
Results filed as inconclusive are left out.
Give bare numbers, in %.

Some compounds with recorded activation:
INSERT INTO measurements (compound_structure, system_name, result_value) VALUES
  ('CCCCCCCN', 'Glucocorticoid receptor (Homo sapiens)', 4.22),
  ('Cc1cc(C(=O)O)ccc1[N+](=O)[O-]', 'Glucocorticoid receptor (Homo sapiens)', 1.49),
  ('ClCCl', 'Glucocorticoid receptor (Homo sapiens)', -3.26),
  ('CCC(C)(C)C', 'Glucocorticoid receptor (Homo sapiens)', -3.95),
  ('Cc1ccc(N(C)C)cc1', 'Glucocorticoid receptor (Homo sapiens)', -4.85),
  ('CC(=O)Nc1ccc(N)cc1', 'Glucocorticoid receptor (Homo sapiens)', 1.17),
  ('C1COC1', 'Glucocorticoid receptor (Homo sapiens)', 0.529),
  ('C=CCCC', 'Glucocorticoid receptor (Homo sapiens)', 5.54);

Hi! Can you tell me activation for each of these compounds?
1. Nc1cc(S(=O)(=O)O)ccc1O
2. CCOCC(=O)O
3. CCOCCO
4. Nc1cc(Cl)c(N)c(Cl)c1

1. -0.152
2. 2.71
3. -1.34
4. 0.447

###

Answer each item with its documented activity change, negative = cytotoxicity.
Test: Cell Viability - N2a (AID 540);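 note: cells exposed to compound for 40 h at 37 °C; plate controls were DMSO alone for no effect and tamoxifen control for full effect; nearly all actives have a fitted effect of over 45% in size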
Settings: N2a mouse neuroblastoma cell viability; at 92.2 µM (top of the series)
Results filed as inconclusive are left out. Active and inactive are the calls of the source. Calls come from the whole dose curve; as a rule, active = well fitted cell-killing curve with a large enough effect; inconclusive = small, poorly fitted or top-dose-only effect; inactive = flat fitted curve, though single readings scatter.

Some compounds with recorded activity change, negative = cytotoxicity:
INSERT INTO assay_data (compound, result_value) VALUES
  ('Cc1ccc(C(=O)O)cc1', '3.7% (inactive)'),
  ('Cc1ccc(Cl)cc1N', '-10.6% (inactive)'),
  ('C=CCCCCCCC=C', '-4.21% (inactive)'),
  ('C[C@@H]1CC2(OC3C[C@@]4(C)C5=CC[C@H]6C(C)(C)C(O[C@@H]7OC[C@@H](O)[C@H](O)[C@H]7O)CC[C@@]67C[C@@]57CC[C@]4(C)C31)OC(O)C1(C)OC21 (stereo partly drawn)', '-8.85% (inactive)'),
  ('CO[Si](CCCNCCC[Si](OC)(OC)OC)(OC)OC', '-27% (inactive)');

Hi! Can you tell me activity change, negative = cytotoxicity for each of these compounds?
1. CCC(C)(C)C(=O)O
2. C1COC1
3. CNc1ccccc1
4. C=Cc1ccc(C=C)cc1

1: 6.55% (inactive); 2: -2.69% (inactive); 3: -12.9% (inactive); 4: -7.69% (inactive)

Hi! Can you tell me activity change, negative = cytotoxicity for each of these compounds?
1. Cc1cc([N+](=O)[O-])ccc1N
2. OC/C(Br)=C(\Br)CO
3. CC(O)COC(C)(C)C (stereo not drawn)
4. CCC(C)(C)C
5. CC(C)=CCC/C(C)=C/C=O
6. NC(=O)NC(N)=O
7. CC1(N)CCC(C(C)(C)N)CC1 (stereo not drawn)
8. c1ccc2[nH]cnc2c1

-8.91% (inactive)
-4.76% (inactive)
1.08% (inactive)
-21.6% (inactive)
-7.95% (inactive)
-8.97% (inactive)
-2.82% (inactive)
-1.37% (inactive)

Hi! Can you tell me activity change, negative = cytotoxicity for each of these compounds?
1. O=C1OC(=O)c2cc([N+](=O)[O-])ccc21
2. CC(C)C=O

1. -2.26% (inactive)
2. -13.8% (inactive)

###

Assay: Cell Viability - LYMP2-019 (AID 973);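 note: cells exposed to compound for 24 h at 37 °C; nearly all actives have a fitted effect of over 55% in size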
Details: LYMP2-019 lymphoblastoid cell line viability; series mostly up to 92.2 µM
Records with an inconclusive call do not appear. Calls of active or inactive are those of the source. The call rests on the fitted dose curve; in most records, active means well fitted cell-killing curve with a large enough effect; inconclusive means small, poorly fitted or top-dose-only effect; inactive means flat fitted curve, though single readings scatter.
One label from this list, please: True = active, False = inactive

See these solved cases before continuing.
INSERT INTO assay_data (compound_structure, label_class) VALUES
  ('O=C(O)c1cccc([N+](=O)[O-])c1', 'False'),
  ('CC(C)(O)CCC(C)(C)O', 'False'),
  ('Cc1ccc(Br)cc1', 'False'),
  ('CC(C)C=O', 'False');

Would you mind telling me which call this test gave Cc1ccccc1C(N)=O ? False

Would you mind telling me which call this test gave CC(=O)Nc1ccccc1C ? False

Would you mind telling me which call this test gave C[C@@H]1O[C@@H](O[C@@H]2[C@@H](O)[C@H](OCCc3ccc(O)c(O)c3)O[C@H](CO[C@@H]3O[C@H](CO)[C@@H](O)[C@H](O)[C@H]3O)[C@H]2OC(=O)/C=C/c2ccc(O)c(O)c2)[C@H](O)[C@H](O)[C@H]1O ? False

Would you mind telling me which call this test gave CCc1ccccc1O ? False

Would you mind telling me which call this test gave CCOCC(=O)O ? False

Would you mind telling me which call this test gave CCCCCCC=O ? False

Would you mind telling me which call this test gave CC(=O)Nc1ccc(N)cc1 ? False

Would you mind telling me which call this test gave OC1CCCC1 ? False

Would you mind telling me which call this test gave CCCCC/C=C/C=C/C=O ? True

Would you mind telling me which call this test gave Cc1cc([N+](=O)[O-])ccc1N ? False

Would you mind telling me which call this test gave CNC(=O)N(c1ccccc1)c1ccccc1 ? False

###

Experiment: Cellular Toxicity (caspase-3) Hek293 (AID 664);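 note: cells exposed to compound for 16 h at 37 °C before readout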
Settings: HEK293 caspase-3 activation, DMSO = 0%, 100 µM tamoxifen = 100%; at 92.2 µM (top of the series)
Records with an inconclusive call do not appear.
MEASURED_PROPERTY: caspase-3 activation (%)
Answers are plain numbers, in %.

Some molecules with recorded caspase-3 activation:
INSERT INTO assay_data (molecule, display_unit, result_value) VALUES
  ('Nc1cc(Cl)c([N+](=O)[O-])cc1O', '%', 5.51),
  ('BrC/C=C/CBr', '%', 2.1),
  ('CC(=O)c1ccccn1', '%', 0.0845),
  ('CCC=O', '%', 1.43),
  ('ON=C1CCCCC1', '%', 2.27),
  ('Cc1ccccc1C(N)=O', '%', 3.64),
  ('Cc1ccc(C)cc1', '%', -2.53),
  ('Cc1cccc(Br)c1', '%', -1.49),
  ('CCOC(=O)OCC', '%', -2.59),
  ('CC/C=C1/OC(=O)c2ccccc21', '%', 1.13);

Hi! Can you tell me caspase-3 activation for each of these molecules?
1. CN(C)CCCNCCCN
2. CC(=O)C1(C)CC2=C(CCCC2(C)C)CC1C (stereo unspecified)
3. COc1ccc(N=[N+]([O-])c2ccc(OC)cc2)cc1
4. O=Cc1c(Cl)cccc1Cl
5. CCCCCCCCN
6. CC(=O)c1ccc([N+](=O)[O-])cc1

0.619
2.01
-8.4
1.92
0.408
-0.704

###

Answer each item with its documented caspase-3 activation.
Test: Cellular Toxicity (caspase-3) Jurkat (AID 655);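 note: cells exposed to compound for 16 h at 37 °C before reading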
Conditions: Jurkat caspase-3 activation, luminescence; at 92.2 µM (top of the series), DMSO = 0%, tamoxifen = 100%
Results filed as inconclusive are left out.
Give bare numbers, in %.

Some compounds with recorded caspase-3 activation:
INSERT INTO measurements (compound, result_value) VALUES
  ('C1COC1', -0.0782),
  ('CCc1ccccc1O', 0.741);

Hi! Can you tell me caspase-3 activation for each of these compounds?
1. Cc1ccccc1C(=O)O
2. CC(=O)OCc1ccco1
3. C=Cc1ccc(C=C)cc1

1. -1.34
2. 13.6
3. -0.456

Hi! Can you tell me caspase-3 activation for each of these compounds?
1. CCCCCO
2. CCCCCCO
3. Cc1cccc(C)c1[N+](=O)[O-]
4. Nc1ccc(F)cc1F
5. CNc1ccccc1
6. NS(=O)(=O)O
7. O=c1[nH][nH]c(=O)c2cc([N+](=O)[O-])ccc12

-0.274
-0.00564
0.339
1.31
1.08
0.859
-0.126

Hi! Can you tell me caspase-3 activation for each of these compounds?
1. O=Cc1cccc(Br)c1
2. Oc1c(Cl)ccc(Cl)c1Cl

[2.44, 0.893]

Hi! Can you tell me caspase-3 activation for each of these compounds?
1. CCCCCCCCCCCCOCC1CO1 (stereo unspecified)
2. Nc1nc2ccccc2[nH]1

1: 3.67; 2: 10.5

###

Answer each item with its documented caspase-3 activation.
Assay: Cellular Toxicity (caspase-3) H-4-II-E (AID 663);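 note: cells exposed to compound for 16 hr before readout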
Settings: H-4-II-E rat hepatoma, scaled: DMSO 0%, 100 µM tamoxifen 100%; at 92.2 µM (top of the series)
Inconclusive results are not listed.
One number for each entry, in %.

INSERT INTO measurements (compound, display_unit, result_value) VALUES
  ('Cc1cccc(Br)c1', '%', 0.836);

Hi! Can you tell me caspase-3 activation for each of these compounds?
1. Cc1ccccc1Br
2. CC(C)(C)c1ccc(OCC2CO2)cc1 (stereo not drawn)
3. C=CCCCCCC
4. Fc1ccccc1
5. NC(=O)/N=N/C(N)=O
6. Nc1ccc(Cl)cc1[N+](=O)[O-]

1: 0.309; 2: 0.475; 3: 1.37; 4: -0.374; 5: 1.22; 6: -0.0414

Hi! Can you tell me caspase-3 activation for each of these compounds?
1. O=C(Cl)c1cccc([N+](=O)[O-])c1
2. Cc1cc(C)c(N)cc1C
3. BrC(Br)C(Br)Br
4. Cc1cscn1

1: 3.32; 2: -1.64; 3: 0.661; 4: 0.996

Hi! Can you tell me caspase-3 activation for each of these compounds?
1. Cc1cccc([N+](=O)[O-])c1C(=O)O
2. CCCCOCCOCCOCCCC

1. 1.44
2. -0.168
